Header: IC50 / Non-receptor tyrosine-protein kinase TYK2 (Homo sapiens) / multiple publications

| Molecule | IC50 |
| --- | --- |
| Cc1nccc(-c2cnc3[nH]ccc3c2N[C@@H]2C[C@H](C)CN(C(=O)CC#N)C2)n1 | ≤ 10 nM |
| O=S(=O)(NC12CC(n3cnc4cnc5[nH]ccc5c43)(C1)C2)N1CC(F)C1 | 28.4 nM |
| CC[C@H](Cn1ccc2cnc(Nc3cnn(CCC(=O)O)c3)nc21)C(C)C | < 100 nM |
| CNC(=O)c1n[nH]c2cc(-c3cc(F)c(O)cc3CC(F)(F)F)nc(NCC3CCCC3)c12 | 142 nM |
| CN1CCN(c2ccc3cc2COCCCCNC(=O)c2ccc(c([N+](=O)[O-])c2)-c2ccnc(n2)N3)CC1 | > 10000 nM |
| CCC(CC)n1cc(-c2nc(-c3cnn(C[C@@H]4CCC(=O)N4)c3)cn3nccc23)cn1 | 10 to 100 nM |
| Cc1cnc2nc1Nc1cccc(c1)COCCCC(=O)N1CCN(CC1)c1cnc(F)c(c1)N2 | 1000 to 10000 nM |
| CCC(CC)n1cc(-c2nc(-c3cnn(C[C@H](O)CC)c3)cn3nccc23)cn1 | 10 to 100 nM |
| C=CC(=O)Nc1cc(Nc2ncc(Cl)c(O[C@@H]3CO[C@H]4[C@@H]3OC[C@H]4O)n2)ccc1N1CCC(N(C)C)C1 (stereo partly shown) | 186 nM |
| Nc1cc2ccc1-c1ccnc(n1)Nc1ccc(Br)c(c1)COCCCCNC2=O | > 10000 nM |
| O=C1NCCCCOCc2cc(ccc2N2CCCCC2)Nc2nccc(n2)-c2ccc1cc2[N+](=O)[O-] | 1000 to 10000 nM |
| Cc1ncc(-c2cc3nccn3c(-c3cnn(C4(CC#N)CN(CC(F)(F)F)C4)c3)n2)s1 | 10 to 100 nM |
| CCN(c1ccc(O)cc1CNc1nc(-c2cc(F)c(O)cc2CC(F)(F)F)cc2[nH]nc(C(=O)NC)c12)S(=O)(=O)c1ccccc1 | 364 nM |
| Cc1nnc(-c2cnc3[nH]ccc3c2N[C@H]2C[C@@H](NS(=O)(=O)CCCC#N)C2)s1 | 10 to 100 nM |
| Nc1cc2ccc1-c1ccnc(n1)Nc1ccc(OC3COC3)c(c1)COCCCCNC2=O | 1000 to 10000 nM |
| O=C1NCCCCOCc2cc(ccc2N2CCOCC2)Nc2nccc(n2)-c2ccc1cc2Cl | 101 to 1000 nM |

---

pIC50: −log10 of the molar value.
Header: pIC50 / Non-receptor tyrosine-protein kinase TYK2 (Homo sapiens) / multiple publications

| Compound | pIC50 |
| --- | --- |
| C[C@@H](NC(=O)c1cnn2ccc(N3CCC[C@@H]3c3cncc(F)c3)nc12)C1CC1 | < 6.00 |
| COc1cncc(-c2ccc3c(Nc4cc(C)[nH]n4)nc(N[C@@H]4C[C@H]5CC[C@@H](C4)N5CCC#N)nc3c2)c1 | 9.60 |
| CCC(Cn1ccc2cnc(Nc3cnn(CC(=O)OC(C)C)c3)nc21)C(C)C (centres unmarked) | > 7.00 |
| CCOC(=O)Cn1cc(Nc2ncc3ccn(CC=C(C)C)c3n2)cn1 | > 7.00 |
| CC(=O)Nc1cc2ccc1C(=O)NCCCCCNc1nc(ncc1C)Nc1cc-2cnc1F | < 5.00 |
| O=C1NCCCCOCc2cc(ccc2N2CCOCC2)Nc2nccc(n2)-c2ccc1c(F)c2 | 7.00 to 7.96 |
| NC(=O)c1cnc(Nc2ccc3c(c2)NCC(O)CO3)nc1NC1CC1 (centres unmarked) | > 8.00 |
| Cc1cc(Nc2ncc(C)c(N3CC(CC#N)(N4CC(C5CC5)C4)C3)n2)sn1 | > 8.00 |

---

Header: IC50 / Non-receptor tyrosine-protein kinase TYK2 (Homo sapiens, UniProt P29597) / multiple publications
Value type: IC50 (nM)

| Smiles record | Relation sign | Observed value |
| --- | --- | --- |
| CCN(c1ncc(F)cc1CNc1nc(-c2cc(F)c(O)cc2CC(F)(F)F)cc2[nH]nc(C(N)=O)c12)S(C)(=O)=O | = | 698 |
| CNC(=O)c1n[nH]c2cc(-c3cc(F)c(O)cc3CC(F)(F)F)nc(NCc3nccnc3N(C)S(C)(=O)=O)c12 | = | 226 |
| Cn1cc(-c2cn3nccc3c(-c3cn([C@]4(CC#N)C[C@H](C#N)C4)c4ccncc34)n2)cn1 | = | 186 |
| Nc1cc2ccc1-c1ccnc(n1)Nc1ccc(OCC3CC3)c(c1)COCCCCNC2=O | > | 10000 |

---

pIC50: −log10 of the molar value.
Header: pIC50 / UniProt P29597 / multiple publications
Value type: pIC50

| Compound | Observed value |
| --- | --- |
| CCCC(C1CC1)n1cc(-c2nc(-c3cnn(C)c3)cc3nccn23)cn1 (stereo not shown) | 7.00 to 8.00 |
| Cn1nc(C(=O)N[C@H]2C[C@H](C(=O)NS(C)(=O)=O)C2)c2c1CCN(c1ncnc3[nH]ccc13)C2 | < 5.70 |
| CCC(CC)n1cc(-c2nc(-c3cnn([C@H](C)[C@H](C)O)c3)cn3nccc23)cn1 (single isomer, unassigned) | 7.00 to 8.00 |
| CC(C)S(=O)(=O)N1CC(CC#N)(n2cc(-c3nc(-c4cnn(C)c4)cn4ncc(C#N)c34)c(N)n2)C1 | 5.76 |
| Cn1cc(-c2cc3nccn3c(-c3cnn(C4(CC#N)CN(CC5CCOCC5)C4)c3)n2)cn1 | 6.00 to 7.00 |
| CC(CO)CNc1nc(-c2cc(F)c(O)cc2CC(F)(F)F)nc2[nH]nc(-c3nc4c([nH]3)CCN(Cc3ccccc3)C4)c12 (stereo not shown) | 6.74 |
| Cn1cc(-c2cc3nccn3c(-c3cnn(C4(CC#N)CN(S(=O)(=O)CCC(F)(F)F)C4)c3)n2)cn1 | > 8.00 |

---

Header: IC50 / Non-receptor tyrosine-protein kinase TYK2 (Homo sapiens, UniProt P29597) / multiple publications
Value type: IC50

| Compound | Observed value |
| --- | --- |
| Cn1cc(-c2cc3nccn3c(-c3cnn(C(C4CC4)C4CC4)c3)n2)cn1 | 10 to 100 nM |
| O=C(NCCC(F)(F)F)c1onc2c1CN(c1ncnc3[nH]ccc13)CC21CC1 | 500 to 2000 nM |
| CC(C)NC(=O)N[C@H]1CC[C@H](N(C)c2ncnc3[nH]ccc23)CC1 | 2710 nM |
| N#CCC(C1CC1)n1cc(-c2nc(C(=O)Nc3ccccn3)cc3nccn23)cn1 (stereo not shown) | 100 to 1000 nM |
| CCC(CC)n1cc(-c2nc(-c3cnn(C4CN(C(=O)[C@H]5C[C@H](O)C5)C4)c3)cn3nccc23)cn1 | 10 to 100 nM |
| Cc1cc(Nc2ncc(C)c(N3CC(C)(NC(=O)c4cccc(F)c4)C3)n2)sn1 | < 20 nM |
| NC(=O)c1cnc(Nc2ccc3c(c2)NC[C@H](OCC2CCCOC2)CO3)nc1NC1CC1 (stereo partly shown) | < 10 nM |
| CCC(CC)n1cc(-c2nc(-c3cnn(C[C@H](O)CN4CC(OC)C4)c3)cn3nccc23)cn1 | 10 to 100 nM |
| N#CCC(=O)N1CCC[C@@H](Nc2c(-c3ncon3)cnc3[nH]ccc23)C1 | 100 to 1000 nM |
| Nc1cc2ccc1-c1ccnc(n1)Nc1ccc(OC3CC3)c(c1)COc1ccc(cc1F)NC2=O | 1000 to 10000 nM |
| CCN(c1ccc(F)cc1CNc1nc(-c2cc(F)c(O)cc2CC(F)(F)F)cc2[nH]nc(C(N)=O)c12)S(C)(=O)=O | 139 nM |
| O=C(NCC(CO)C(F)(F)F)c1noc2c1CN(c1ncnc3[nH]ccc13)CC2 (stereo not shown) | 500 to 2000 nM |
| CC1CCNC(=O)c2ccc(c(N)c2)-c2ccnc(n2)Nc2ccc(OC3CCCOC3)c(c2)COC1 (stereo not shown) | 1000 to 10000 nM |
| CCOC(=O)Cn1cc(Nc2ncc3ccn(CC(C(C)C)C(C)C)c3n2)cn1 | < 100 nM |
| O=C(NCCc1ccccn1)c1noc2c1CN(c1ncnc3[nH]ccc13)CC2 | > 2000 nM |
| Cc1cc(Nc2ncc(C)c(N3CC(CC#N)(N4CCC(CS(C)(=O)=O)CC4)C3)n2)sn1 | < 10 nM |

---

pIC50: −log10 of the molar value.
Header: pIC50 / Non-receptor tyrosine-protein kinase TYK2 (Homo sapiens, UniProt P29597) / multiple publications

| Compound | pIC50 |
| --- | --- |
| Cc1cc(Nc2nc(N[C@@H]3C[C@H]4CC[C@@H](C3)N4CCC#N)nc3cccc(Cl)c23)n[nH]1 | 7.37 |
| Cc1cc2ccc1-c1ccnc(n1)Nc1cc(cc(N3CCOCC3)c1)COCCCCNC2=O | 5.00 to 6.00 |
| COc1ccc2cc1COCCCCNC(=O)c1ccc(c(C)c1)-c1nc(ncc1C)N2 | < 5.00 |
| Cc1cnc(CCNC(=O)c2noc3c2CN(c2ncnc4[nH]ccc24)CC3)o1 | < 5.70 |
| Cc1cc(Nc2ncc(Cl)c(N3CC(CC#N)(N4CCCCC4)C3)n2)sn1 | > 8.00 |
| Nc1cc2ccc1-c1ccnc(n1)Nc1ccc(OCC3CCCOC3)c(c1)COc1ccc(cc1)NC2=O (stereo not shown) | < 5.00 |
| Cc1cc(Nc2ncc(C)c(N3CC(CC#N)(N4CCC(CCF)CC4)C3)n2)sn1 | > 8.00 |
| CNC(=O)c1coc(-c2cnc3[nH]ccc3c2N[C@@H]2C[C@H](C)CN(C(=O)CC#N)C2)n1 | ≥ 8.00 |
| Cn1cc(-c2cc3ncc(F)n3c(-c3cnn(C(CC#N)C4CC4)c3)n2)cn1 (stereo not shown) | > 8.00 |
| CC(C#N)Cn1cc(-c2nc(-c3ccc(N4CCOCC4)cc3)cc3nccn23)cn1 (stereo not shown) | 7.00 to 8.00 |
| CCC(CC)n1cc(-c2nc(-c3cnn(C[C@@](C)(O)CO)c3)cn3nccc23)cn1 (single isomer, unassigned) | 7.00 to 8.00 |
| COc1cc(F)cc(C#N)c1COc1ccc2cc1COCCCCNC(=O)c1ccc(c(N)c1)-c1ccnc(n1)N2 | < 5.00 |
| CC1CCNC(=O)c2ccc(c([N+](=O)[O-])c2)-c2ccnc(n2)Nc2ccc(OCC3CCOC3)c(c2)COC1 (stereo not shown) | < 5.00 |
| Cn1cc(-c2cc3nccn3c(-c3cnn(C(CC#N)CC#N)c3)n2)cn1 | > 8.00 |
| CCOC(=O)Cn1cc(Nc2ncc3ccn(CC45CC6CC(CC(C6)C4)C5)c3n2)cn1 | > 7.00 |
| O=C1NCCCCOCc2cc(ccc2OCc2cccc3c2CCO3)Nc2nccc(n2)-c2ccc1cc2[N+](=O)[O-] | < 5.00 |
